Entries and their growth inhibition values follow.
Assay: NCI Yeast Anticancer Drug Screen. Data for the mlh1 rad18 strain (AID 175)
Details: S. cerevisiae mlh1 rad18 strain growth inhibition; at 5.0 µM (retest, dose inferred, filed as 0.5); hits give high values
This is part of a sample that, as a whole, favours compounds with a hit. Of some 79,000 tested, about 15% had one in any assay.
The response must be a number in % with no trailing unit.

Observe how each entry below is paired with its result.
{"columns": ["Compound", "growth inhibition, %"],
 "data": [
  ["CCOP(=O)(OCC)/C(C#N)=C/c1ccc(Br)cc1", -19],
  ["O=P1(N2CCOCC2)OC(c2ccccc2)=CCN1c1ccccc1 (stereo unspecified)", -1],
  ["COC12C(COC(N)=O)C3=C(C(=O)C(C)=C(NC(C)C)C3=O)N1CC1NC12 (stereo unspecified)", 31],
  ["CC(C)c1ccc(C(c2c(O)c3ccccc3oc2=O)c2c(O)c3ccccc3oc2=O)cc1", -11],
  ["O=C(CBr)OCCBr", 29],
  ["O=[N+]([O-])/C=C\\c1ccc2c(c1)OCO2", 100],
  ["CC(=O)[O-].O=C([CH-]C(=O)c1ccccc1)c1ccccc1.O=C([CH-]C(=O)c1ccccc1)c1ccccc1.[Y+3]", 13],
  ["CCC[CH2][Sn]1([CH2]CCC)[O]CCN2CCN(CC[O]1)CC2", -6]
]}

Qu. Return reported growth inhibition. Input compound: Nc1ccc([As]=[As]c2ccc(N)cc2)cc1 (stereo unspecified)
Ans. -1

Qu. Give me measured growth inhibition, please, for this compound: C[PH+](C)C.C[PH+](C)C.[Au]
Ans. 68

Qu. Please give measured growth inhibition of the following entry: Cc1c(=O)n(O)c2ccccc2[n+]1[O-]
Ans. 5
